B1: CPEB3 Ribozyme (parent)
chain: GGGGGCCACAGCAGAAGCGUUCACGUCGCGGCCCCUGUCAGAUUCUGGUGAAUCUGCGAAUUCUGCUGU

Variants of: B1
Experiment: self-cleavage, relative activity (ratio to wild type); higher = more cleavage; co-transcriptional
Binned self-cleavage; ranges: A = under 0.3, B = from 0.3 up to 0.7, C = 0.7 and over

query: Hi there! Could you help me figure out the category for G11C C32A please?
result: B

query: Hi there! Could you help me figure out the category for U36C G41C please?
result: B

query: Hi there! Could you help me figure out the category for G2C G4A please?
result: A
